# target: CDK3 CCNE1 (human) (UniProt Q00526+P24864)
# Sequence (P24864 whole entry, looked up): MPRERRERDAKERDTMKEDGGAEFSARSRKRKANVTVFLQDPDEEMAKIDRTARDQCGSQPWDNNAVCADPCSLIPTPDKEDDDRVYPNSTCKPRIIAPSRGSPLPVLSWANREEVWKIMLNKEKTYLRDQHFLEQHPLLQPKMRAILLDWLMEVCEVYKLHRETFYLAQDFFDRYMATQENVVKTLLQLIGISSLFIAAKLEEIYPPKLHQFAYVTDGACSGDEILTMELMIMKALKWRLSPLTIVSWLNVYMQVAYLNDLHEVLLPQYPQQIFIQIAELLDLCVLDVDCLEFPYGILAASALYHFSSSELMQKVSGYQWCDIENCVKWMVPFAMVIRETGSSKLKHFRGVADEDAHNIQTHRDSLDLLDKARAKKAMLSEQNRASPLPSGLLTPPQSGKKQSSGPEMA
# Sequence (Q00526 whole entry, looked up): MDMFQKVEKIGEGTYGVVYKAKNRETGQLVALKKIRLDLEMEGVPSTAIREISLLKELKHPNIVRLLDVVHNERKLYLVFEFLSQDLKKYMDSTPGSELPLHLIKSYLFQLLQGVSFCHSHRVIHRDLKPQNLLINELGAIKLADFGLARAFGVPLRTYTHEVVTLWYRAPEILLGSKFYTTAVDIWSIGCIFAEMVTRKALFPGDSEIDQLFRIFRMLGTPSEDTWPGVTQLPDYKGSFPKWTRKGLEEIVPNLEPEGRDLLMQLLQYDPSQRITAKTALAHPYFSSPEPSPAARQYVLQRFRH
# assay.explanation: radiometric filter-binding kinase assay, Kinase HotSpot
# condition.label: compound 0.5 µM; ATP 10 µM
Rule: residual activity under 90% gives no, otherwise yes.

Query block: Given the entry "O=C(O)c1ccc2c3c1cccc3c(=O)n1c3ccccc3nc21" , answer whether its residual activity meets or surpasses 90%.
Result block: yes

Query block: Given the entry "COc1cc2c(Nc3ccc(Br)cc3F)ncnc2cc1OCC1CCN(C)CC1" , answer whether its residual activity meets or surpasses 90%.
Result block: yes

Query block: Given the entry "CCc1nc(-c2ccc(OC)cc2)[nH]c1-c1ccncc1" , answer whether its residual activity meets or surpasses 90%.
Result block: yes

Query block: Given the entry "O=c1c2ccccc2[nH]c(=S)n1CCN1CCC(=C(c2ccc(F)cc2)c2ccc(F)cc2)CC1" , answer whether its residual activity meets or surpasses 90%.
Result block: yes

---
Query block: Given the entry "Nc1ncnc2c1cnn2-c1ccccc1" , answer whether its residual activity meets or surpasses 90%.
Result block: yes

Query block: Given the entry "CN[C@@H]1C[C@H]2O[C@@](C)([C@@H]1OC)n1c3ccccc3c3c4c(c5c6ccccc6n2c5c31)C(=O)NC4" , answer whether its residual activity meets or surpasses 90%.
Result block: no

Query block: Given the entry "N/C(=N\N=C/c1ccc(-c2cccc([N+](=O)[O-])c2)o1)N[N+](=O)[O-]" , answer whether its residual activity meets or surpasses 90%.
Result block: no

Query block: Given the entry "O=C(c1ccccc1)c1ccc(N2CCOCC2)cc1O" , answer whether its residual activity meets or surpasses 90%.
Result block: yes

Query block: Given the entry "O=S(=O)(NCCNC/C=C/c1ccc(Br)cc1)c1cccc2cnccc12" , answer whether its residual activity meets or surpasses 90%.
Result block: no

----------
Reported residual activity values are given for each entry in this list.
# target: MAP3K9 (human)
# assay.explanation: radiometric filter-binding kinase assay, Kinase HotSpot
# condition.label: compound 0.5 µM; ATP 10 µM
I only need the number, in %, no unit after it.

Worked cases, residual activity given:
Query block: Given "O=c1c2ccccc2[nH]c(=S)n1CCN1CCC(=C(c2ccc(F)cc2)c2ccc(F)cc2)CC1" , respond with its residual activity.
Result block: 111

Query block: Given "COc1cc2ncnc(Nc3ccc(O)c(Br)c3)c2cc1OC" , respond with its residual activity.
Result block: 80.1

---
Query block: Given "FC(F)(F)c1ccc(/C=C/c2nc(COc3ccc(CCCCn4ccnn4)cc3)co2)cc1" , respond with its residual activity.
Result block: 105

Query block: Given "Cn1cc(/C=C2\C(=O)Nc3ccc(S(N)(=O)=O)cc32)c2ccccc21" , respond with its residual activity.
Result block: 28.1

Query block: Given "COc1cc2c(Nc3ccc(Br)cc3F)ncnc2cc1OCC1CCN(C)CC1" , respond with its residual activity.
Result block: 96.1

Query block: Given "CCOc1cc2ncnc(Nc3cccc(Br)c3)c2cc1OCC" , respond with its residual activity.
Result block: 96.1

----------
# target: FGR (human) (UniProt P09769)
# Sequence (P09769 whole entry, looked up): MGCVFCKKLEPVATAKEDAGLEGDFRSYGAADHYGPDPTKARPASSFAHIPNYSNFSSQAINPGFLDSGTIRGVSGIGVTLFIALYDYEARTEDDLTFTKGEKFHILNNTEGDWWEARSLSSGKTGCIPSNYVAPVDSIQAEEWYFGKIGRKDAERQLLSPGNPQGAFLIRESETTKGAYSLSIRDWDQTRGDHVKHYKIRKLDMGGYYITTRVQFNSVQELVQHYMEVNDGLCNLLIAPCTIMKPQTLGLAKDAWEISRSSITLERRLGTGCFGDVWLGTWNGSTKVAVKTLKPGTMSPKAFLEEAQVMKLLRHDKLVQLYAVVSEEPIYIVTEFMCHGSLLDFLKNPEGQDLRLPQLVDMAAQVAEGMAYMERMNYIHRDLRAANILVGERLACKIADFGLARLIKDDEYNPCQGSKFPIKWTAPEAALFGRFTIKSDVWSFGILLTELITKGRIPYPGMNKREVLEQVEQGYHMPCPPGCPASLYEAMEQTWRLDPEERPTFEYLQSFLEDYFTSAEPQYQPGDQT
# assay.explanation: radiometric filter-binding kinase assay, Kinase HotSpot
# condition.label: compound 0.5 µM; ATP 10 µM
Just a reminder that ties go to criterion not met: only residual activity strictly below 90% counts as criterion met.

Query block: Decide: residual activity of "O=C(O)c1ccc2c3c1cccc3c(=O)n1c3ccccc3nc21" strictly below 90%?
Result block: criterion not met

Query block: Decide: residual activity of "COc1cc2ncnc(Nc3ccc(O)c(Br)c3)c2cc1OC" strictly below 90%?
Result block: criterion met

---
Query block: Decide: residual activity of "N#Cc1c(NC(=O)c2cccc3ccccc23)sc2c1CCCC2" strictly below 90%?
Result block: criterion not met
